system: MS2 coat protein; experiment: apparent Kd, MS2 coat protein; higher = weaker binding; RNA-MaP array; details: designed as: ON switch for theophylline; no ligand
endpoint: apparent Kd (nM)

polymer-sequence	units-of-measure	obs-value
UACAUACAUGAGGAUCACCCAUGUUGCGAUACCAGCGAAAGAGACCGCCCUUGGCAGCGCUCAUUUAGUUCCAUUCUUGAUCGAA	nM	14.3
UCAGCACAUGAGGAUCACCCAUGUCGUGAUACCAGCCUGUGCGAAGGCCCUUGGCAGCACAGUCCCGAUUUGCUUAUAUGCACUU	nM	35.7
GUUGCACAUGAGGAUCACCCAUGUUUGGAUACCAGUCUCUGUAAUGACCCUUGGCAGCCACCAUAGACGCUUGAGUAGAGCCUGA	nM	15
CUUACACAUGAGGAUCACCCAUGUCAUGAUACCAGCCAAUACACUGGCCCUUGGCAGCAUCUCAGCCUCAGCUACAUUGACUGAC	nM	19.9
GCUGAACAUGAGGAUCACCCAUGUCCGGAUACCAGCGGACCUCAUCGCCCUUGGCAGCCGAACCAACAGCUUGUGGUGUUCACUC	nM	35.4
CCUCAGCAAUUGGAUACCAGUACAUCGUAAGACAUGAGGAUCACCCAUGUGGGCUUGACAUACCCUUGGCAGCCAUCCUUGAUCC	nM	234
UAUCUAACGAAGGAUACCAGUACAUGAGAGUACAUGAGGAUCACCCAUGUUAGAUACGGGUACCCUUGGCAGCCUCACCUACACC	nM	56.8

* * *

tested on: MS2 coat protein; assay: apparent Kd, MS2 coat protein; higher = weaker binding; RNA-MaP array; settings: designed as: ON switch for flavin mononucleotide; no ligand
apparent Kd by entry:

polymer-sequence	units-of-measure	apparent Kd
UGGCCGUAGAAGAAGGAGGACACCGUUUUGUCACGGACAUGAGGAUCACCCAUGUAGAUAAUUGCCUAGGAUAUUCGCUCAUUU	nM	15.9
ACAUGAGGAUCACCCAUGUUUUAUUCGAACUGGAAAUGACGUCAGGAUAUCACAAAUAGCAGCAAUGAGAAGGGACUAUAUAUG	nM	11.6
AAACAUGCGUGAGAGGAUAUGUCAUUAAUAACAUGAGGAUCACCCAUGUUCGAUGAUUGAAAUAAACAGAAGGCUCCGGUCUGUAA	nM	27
AACAUGAGGAUCACCCAUGUACACUCAAUUCGGUAUCGCUGCAAGGAUAUUCGCGUUGGAUACAUGAAGAAGGUGCCCGUACCG	nM	92
UAAGUGCUCACAUGAGGAUCACCCAUGUAUUUACUUAUGAGGAGAAGGAUCAAGGAGCAGCGGUGAUAGGAUAUCCUAAUAGAA	nM	33
CAUGCUAACAUGAGGAUCACCCAUGUUCCGGCGUAAACUGCACAGGAUAUCGAGAAUUUACAAGCCGAGAAGGGUGCGUAGCAU	nM	195
ACCCAACAUGAGGAUCACCCAUGUGCAUGCCUCGGAGGAUAUGACCUCAUUCAUCUUUGAUCAGAAGGCCGAUCGC	nM	113
GAGGCAACGAUGGAGGAUAUACUAGGUAAUACAUGAGGAUCACCCAUGUGAGAAAGAGAGUACAUGUAGAAGGCCAGAUAUGCGGU	nM	30.5
AGGUGUCCAGGAGGAUAUGAUUGCAACACGCCCUCAGAAGGCCUUAUAUACAAAGCAUACAUGAGGAUCACCCAUGUAAUUGGA	nM	8.74
AUAAAAUGCUUAGGAUAUGUAACAGCAUGCACAUGAGGAUCACCCAUGUUAUAUUUAGUGGAAUGACAGAAGGAAGUAGAGACU	nM	18.6
GUAAGACAAGGCAAGGAUAUGCCCUAAUGGACAUGAGGAUCACCCAUGUGGUUGCAUAAUCAAAAGCAGAAGGUGCUACAACACGG	nM	48.3
UCAGGACAUGAGGAUCACCCAUGUUGUCAAACCAAAGGAUAUAGGCUGAUCGAAAGAGAACUAGAAGGUUGCGAUU	nM	20.1
AACUAAAACGAUAGUCGACAUGAGGAUCACCCAUGUACAAAACAGGAUAUAAGAUUACCGGUGUGUAAGAAGGGUUUGCUAUCA	nM	15.2
UAGACUCAGUAGAAGGAUGAUAUUACGAUAUAACGUGACAUGAGGAUCACCCAUGUCUUCUGGUCAUAGGAUAUACGCGAAAUG	nM	45.6
CGCUAAGAGCGGCACCUCCACAUGAGGAUCACCCAUGUUUGAAGAAGGCCAAUUUACGUAAGACUGGAGGAUAUUCAGGAGAGU	nM	10.1
